The reported numbers originate from ChEMBL document CHEMBL1135848.

assayedTarget: UniProt P08588
measurementDescription: Binding affinity of compound against Beta-1 adrenergic receptor was determined
measuredParameter: Ki

molecularstring=CS(=O)(=O)Nc1cc([C@@H](O)CNCC2CCN(S(=O)(=O)c3ccc(-n4cc(CC(=O)O)c5ccccc54)cc3)CC2)ccc1O testvalue="240 nM"

###

Known pEC50 of a selection of molecules
assayedTarget: Beta-3 adrenergic receptor (Homo sapiens, UniProt P13945)
measurementDescription: Beta-3 adrenergic receptor agonist activity as increased cAMP levels in CHO cells expressing human Beta-3-adrenoceptor
Assay type: functional, cell-based
Sequence (P13945 whole entry): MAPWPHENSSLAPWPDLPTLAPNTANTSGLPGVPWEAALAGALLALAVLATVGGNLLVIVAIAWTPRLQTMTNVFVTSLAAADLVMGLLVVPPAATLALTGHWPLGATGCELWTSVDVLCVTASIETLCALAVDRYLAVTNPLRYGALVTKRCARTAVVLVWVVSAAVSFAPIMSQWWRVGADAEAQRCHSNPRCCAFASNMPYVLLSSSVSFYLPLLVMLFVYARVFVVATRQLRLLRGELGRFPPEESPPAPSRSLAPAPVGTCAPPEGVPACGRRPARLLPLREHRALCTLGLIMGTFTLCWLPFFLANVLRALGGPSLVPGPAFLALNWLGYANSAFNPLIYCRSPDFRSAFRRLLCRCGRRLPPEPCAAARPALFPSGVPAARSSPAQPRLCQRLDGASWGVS
pEC50: −log10 of the molar value.
measuredParameter: pEC50

molecularstring=CC(C)N(Cc1cc(F)ccc1F)C(=O)Nc1ccc(S(=O)(=O)N2CCC(CNC[C@H](O)c3ccc(O)c(NS(C)(=O)=O)c3)CC2)cc1 assayedtarget="Beta-3 adrenergic receptor (Homo sapiens, UniProt P13945)" measuredparameter=pEC50 testvalue=7.57
molecularstring=CS(=O)(=O)Nc1cc([C@@H](O)CNCC2CCN(S(=O)(=O)c3ccc(NC(=O)NCc4cc(F)ccc4F)cc3)CC2)ccc1O assayedtarget="Beta-3 adrenergic receptor (Homo sapiens, UniProt P13945)" measuredparameter=pEC50 testvalue=8.30
molecularstring=CCCCCCCCC(=O)Nc1ccc(S(=O)(=O)N2CCC(CNC[C@H](O)c3ccc(O)c(NS(C)(=O)=O)c3)CC2)cc1 assayedtarget="Beta-3 adrenergic receptor (Homo sapiens, UniProt P13945)" measuredparameter=pEC50 testvalue=8.22
molecularstring=CS(=O)(=O)Nc1cc([C@@H](O)CNCC2CCN(S(=O)(=O)c3ccc(NC(=O)N[C@@H](Cc4ccccc4)C(=O)O)cc3)CC2)ccc1O assayedtarget="Beta-3 adrenergic receptor (Homo sapiens, UniProt P13945)" measuredparameter=pEC50 testvalue=7.51
molecularstring=CS(=O)(=O)Nc1cc([C@@H](O)CNCC2CCN(c3ccc(C(=O)N[C@@H](Cc4ccccc4)C(=O)O)cc3)CC2)ccc1O assayedtarget="Beta-3 adrenergic receptor (Homo sapiens, UniProt P13945)" measuredparameter=pEC50 testvalue=7.51

###

assayedTarget: Beta-2 adrenergic receptor (Homo sapiens)
Sequence (P07550 whole entry): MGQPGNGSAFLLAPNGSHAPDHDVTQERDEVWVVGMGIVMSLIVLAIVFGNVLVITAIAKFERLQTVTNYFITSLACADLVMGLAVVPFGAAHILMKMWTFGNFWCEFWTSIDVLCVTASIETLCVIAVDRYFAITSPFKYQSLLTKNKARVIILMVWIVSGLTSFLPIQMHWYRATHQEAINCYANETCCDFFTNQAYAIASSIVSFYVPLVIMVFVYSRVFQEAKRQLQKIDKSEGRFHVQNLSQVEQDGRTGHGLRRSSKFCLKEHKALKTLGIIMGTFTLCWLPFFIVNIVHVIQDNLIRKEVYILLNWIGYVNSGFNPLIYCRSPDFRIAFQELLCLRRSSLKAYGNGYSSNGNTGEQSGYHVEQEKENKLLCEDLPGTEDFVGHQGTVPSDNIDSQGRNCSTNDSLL
measurementDescription: Beta-2 adrenergic receptor agonist activity as increased cAMP levels in CHO cells expressing human Beta-2-adrenoceptor
Assay type: functional, cell-based
pEC50: −log10 of the molar value.
measuredParameter: pEC50

molecularstring=CC(C)N(Cc1cc(F)ccc1F)C(=O)Nc1ccc(S(=O)(=O)N2CCC(CNC[C@H](O)c3ccc(O)c(NS(C)(=O)=O)c3)CC2)cc1 measuredparameter=pEC50 testvalue=7.92
molecularstring=CS(=O)(=O)Nc1cc([C@@H](O)CNCC2CCN(S(=O)(=O)c3ccc(-n4ccc5c(C(=O)O)cccc54)cc3)CC2)ccc1O measuredparameter=pEC50 testvalue=7.22
molecularstring=CCCCCCCCC(=O)Nc1ccc(S(=O)(=O)N2CCC(CNC[C@H](O)c3ccc(O)c(NS(C)(=O)=O)c3)CC2)cc1 measuredparameter=pEC50 testvalue=7.52
molecularstring=CC(C)C[C@H](NC(=O)c1ccc(N2CCC(CNC[C@H](O)c3ccc(O)c(NS(C)(=O)=O)c3)CC2)cc1)C(=O)O measuredparameter=pEC50 testvalue=6.00
molecularstring=CS(=O)(=O)Nc1cc([C@@H](O)CNCC2CCN(S(=O)(=O)c3ccc(-n4cc(CC(=O)O)c5ccccc54)cc3)CC2)ccc1O measuredparameter=pEC50 testvalue=7.52
molecularstring=CS(=O)(=O)Nc1cc([C@@H](O)CNCC2CCN(S(=O)(=O)c3ccc(-n4cc(C(=O)O)cn4)cc3)CC2)ccc1O measuredparameter=pEC50 testvalue=8.00
molecularstring=CS(=O)(=O)Nc1cc([C@@H](O)CNCC2CCN(S(=O)(=O)c3ccc(NC(=O)N[C@@H](Cc4ccccc4)C(=O)O)cc3)CC2)ccc1O measuredparameter=pEC50 testvalue=7.70
molecularstring=CS(=O)(=O)Nc1cc([C@@H](O)CNCC2CCN(c3ccc(C(=O)N[C@@H](Cc4ccccc4)C(=O)O)cc3)CC2)ccc1O measuredparameter=pEC50 testvalue=4.70
molecularstring=CS(=O)(=O)Nc1cc([C@@H](O)CNCC2CCN(c3ccc(C(=O)N[C@@H](CC(=O)O)C(=O)O)cc3)CC2)ccc1O measuredparameter=pEC50 testvalue=8.30

###

Known pEC50 of a selection of compounds
assayedTarget: Beta-1 adrenergic receptor (Homo sapiens)
Sequence (P08588 whole entry): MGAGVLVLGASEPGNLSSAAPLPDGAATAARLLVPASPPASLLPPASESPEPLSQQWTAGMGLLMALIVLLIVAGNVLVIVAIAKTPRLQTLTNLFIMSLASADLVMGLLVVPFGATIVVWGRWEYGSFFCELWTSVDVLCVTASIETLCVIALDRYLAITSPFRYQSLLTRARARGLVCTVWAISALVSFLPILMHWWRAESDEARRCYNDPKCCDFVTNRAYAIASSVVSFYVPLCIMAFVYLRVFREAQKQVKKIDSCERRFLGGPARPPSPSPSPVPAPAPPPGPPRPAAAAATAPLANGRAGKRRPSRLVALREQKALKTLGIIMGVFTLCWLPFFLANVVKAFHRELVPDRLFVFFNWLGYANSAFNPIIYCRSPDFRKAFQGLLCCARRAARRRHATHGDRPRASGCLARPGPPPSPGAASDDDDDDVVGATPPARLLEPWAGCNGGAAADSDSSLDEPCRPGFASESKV
measurementDescription: Beta-1 adrenergic receptor agonist activity as increased cAMP levels in CHO cells expressing human Beta-1-adrenoceptor
pEC50: −log10 of the molar value.
measuredParameter: pEC50

molecularstring=CS(=O)(=O)Nc1cc([C@@H](O)CNCC2CCN(S(=O)(=O)c3ccc(-n4ccc5c(C(=O)O)cccc54)cc3)CC2)ccc1O testvalue=7.30
molecularstring=CS(=O)(=O)Nc1cc([C@@H](O)CNCC2CCN(S(=O)(=O)c3ccc(-n4cc(CC(=O)O)c5ccccc54)cc3)CC2)ccc1O testvalue=7.52
molecularstring=CS(=O)(=O)Nc1cc([C@@H](O)CNCC2CCN(S(=O)(=O)c3ccc(NC(=O)NCc4cc(F)ccc4F)cc3)CC2)ccc1O testvalue=5.50
molecularstring=CS(=O)(=O)Nc1cc([C@@H](O)CNCC2CCN(S(=O)(=O)c3ccc(NC(=O)N[C@@H](Cc4ccccc4)C(=O)O)cc3)CC2)ccc1O testvalue=6.28

###

assayedTarget: UniProtKB P08588
measurementDescription: Binding affinity of compound against Beta-1 adrenergic receptor was determined
Type: functional
measuredParameter: Ki (µM)

molecularstring=CCCCCCCCC(=O)Nc1ccc(S(=O)(=O)N2CCC(CNC[C@H](O)c3ccc(O)c(NS(C)(=O)=O)c3)CC2)cc1 measuredparameter=Ki testvalue=6.6

###

assayedTarget: Beta-3 adrenergic receptor (Homo sapiens, UniProt P13945)
measurementDescription: Human Beta-3 adrenergic receptor intrinsic activity (IA) as maximal response relative to isoproterenol at […]
Type: functional
Sequence (P13945 whole entry, looked up): as the sequence (P13945 whole entry) above
Mark each entry 1 if its Intrinsic activity sits below 1, and -1 for all others.

molecularstring=CC(C)N(Cc1cc(F)ccc1F)C(=O)Nc1ccc(S(=O)(=O)N2CCC(CNC[C@H](O)c3ccc(O)c(NS(C)(=O)=O)c3)CC2)cc1 class=1
molecularstring=CS(=O)(=O)Nc1cc([C@@H](O)CNCC2CCN(S(=O)(=O)c3ccc(NC(=O)N[C@@H](Cc4ccccc4)C(=O)O)cc3)CC2)ccc1O class=-1
molecularstring=CS(=O)(=O)Nc1cc([C@@H](O)CNCC2CCN(c3ccc(C(=O)N[C@@H](CC(=O)O)C(=O)O)cc3)CC2)ccc1O class=1
molecularstring=CS(=O)(=O)Nc1cc([C@@H](O)CNCC2CCN(S(=O)(=O)c3ccc(-n4cc(C(=O)O)cn4)cc3)CC2)ccc1O class=1
molecularstring=CS(=O)(=O)Nc1cc([C@@H](O)CNCC2CCN(S(=O)(=O)c3ccc(-n4cc(CC(=O)O)c5ccccc54)cc3)CC2)ccc1O class=1
molecularstring=CS(=O)(=O)Nc1cc([C@@H](O)CNCC2CCN(c3ccc(C(=O)N[C@@H](Cc4ccccc4)C(=O)O)cc3)CC2)ccc1O class=-1
molecularstring=CS(=O)(=O)Nc1cc([C@@H](O)CNCC2CCN(S(=O)(=O)c3ccc(NC(=O)NCc4cc(F)ccc4F)cc3)CC2)ccc1O class=1

###

assayedTarget: UniProtKB P08588
measurementDescription: Beta-1 adrenergic receptor agonist activity as increased cAMP levels in CHO cells expressing human Beta-1-adrenoceptor
pEC50: −log10 of the molar value.
Please enter Criterion met where pEC50 is greater than or equal to 6, and Criterion not met where it is lower.

molecularstring=CS(=O)(=O)Nc1cc([C@@H](O)CNCC2CCN(c3ccc(C(=O)N[C@@H](CC(=O)O)C(=O)O)cc3)CC2)ccc1O class="Criterion met"
molecularstring=CC(C)C[C@H](NC(=O)c1ccc(N2CCC(CNC[C@H](O)c3ccc(O)c(NS(C)(=O)=O)c3)CC2)cc1)C(=O)O class="Criterion not met"
molecularstring=CC(C)N(Cc1cc(F)ccc1F)C(=O)Nc1ccc(S(=O)(=O)N2CCC(CNC[C@H](O)c3ccc(O)c(NS(C)(=O)=O)c3)CC2)cc1 class="Criterion not met"
molecularstring=CS(=O)(=O)Nc1cc([C@@H](O)CNCC2CCN(c3ccc(C(=O)N[C@@H](Cc4ccccc4)C(=O)O)cc3)CC2)ccc1O class="Criterion met"

###

Known Intrinsic activity of a selection of molecules
assayedTarget: Beta-3 adrenergic receptor (Homo sapiens)
measurementDescription: Human Beta-3 adrenergic receptor intrinsic activity (IA) as maximal response relative to isoproterenol at […]
Format: functional
measuredParameter: Intrinsic activity

molecularstring=CC(C)C[C@H](NC(=O)c1ccc(N2CCC(CNC[C@H](O)c3ccc(O)c(NS(C)(=O)=O)c3)CC2)cc1)C(=O)O testvalue=1
molecularstring=CCCCCCCCC(=O)Nc1ccc(S(=O)(=O)N2CCC(CNC[C@H](O)c3ccc(O)c(NS(C)(=O)=O)c3)CC2)cc1 testvalue=1
molecularstring=CS(=O)(=O)Nc1cc([C@@H](O)CNCC2CCN(S(=O)(=O)c3ccc(-n4ccc5c(C(=O)O)cccc54)cc3)CC2)ccc1O testvalue=1
